PROTOCOL TEXT: Cytotoxicity against CCR5-expressing human PM1 cells assessed as reduction of cell viability after 7 days by WST8 assay
Type: cell-based
In plain terms, low CC50 at 168 h, meaning strictly below 40 µM, gives TRUE, and everything else gives FALSE.

INSERT INTO results (compound, category_label) VALUES
  ('Cc1cc(NC(=O)C(=O)NC2CC(C)(C)NC(C)(C)C2)ccc1Cl', 'TRUE'),
  ('Cc1ccc(NC(=O)C(=O)NC2CC3(CCCCC3)NC3(CCCCC3)C2)cc1Cl (configuration not stated)', 'TRUE'),
  ('Cc1ccc(NC(=O)C(=O)NC2CC(C)(C)NC(C)(C)C2)cc1Cl', 'FALSE'),
  ('Cc1ccc(NC(=O)C(=O)NC2CC3(CCCCC3)NC3(CCCCC3)C2)cc1F (configuration not stated)', 'FALSE'),
  ('O=C(Nc1ccc(Cl)c(Cl)c1)C(=O)NC1CC2(CCCCC2)NC2(CCCCC2)C1 (configuration not stated)', 'TRUE'),
  ('Cc1cc(NC(=O)C(=O)NC2CC3(CCCCC3)NC3(CCCCC3)C2)ccc1Cl (configuration not stated)', 'TRUE'),
  ('CC1(C)CC(NC(=O)C(=O)Nc2ccc(Cl)c(F)c2)CC(C)(C)N1', 'FALSE'),
  ('Cc1ccc(NC(=O)C(=O)NC2CC3(CCCCC3)NC3(CCCCC3)C2)cc1Br (configuration not stated)', 'TRUE'),
  ('O=C(Nc1ccc(Cl)c(F)c1)C(=O)NC1CC2(CCCCC2)NC2(CCCCC2)C1 (configuration not stated)', 'TRUE'),
  ('Cc1ccc(NC(=O)C(=O)NC2CC(C)(C)NC(C)(C)C2)cc1F', 'FALSE'),
  ('CC1(C)CC(NC(=O)C(=O)Nc2ccc(Cl)c(Cl)c2)CC(C)(C)N1', 'TRUE'),
  ('Cc1ccc(NC(=O)C(=O)NC2CC(C)(C)NC(C)(C)C2)cc1Br', 'TRUE');
